Reported MCH values for a set of compounds
species: Rattus norvegicus; experiment: Open TG-GATES - Regimen: Single; format: toxicity, organism-based, Sprague-Dawley; design: regimen Single, gender Male, age 6 weeks; details: in vivo, po, 1000 mg/kg, 6 h, tissue Blood, route gavage, dose level High
Please respond with the number in pg and leave the unit unwritten.

>>> experimental_value("NC(N)=Nc1nc(CSCCC(N)=NS(N)(=O)=O)cs1 [FAMOTIDINE]")
21.7
>>> experimental_value("CCOC(=O)CCC(=O)O[C@H]1[C@H](O[C@@H]2[C@@H](C)[C@H](O[C@H]3C[C@@](C)(OC)[C@@H](O)[C@H](C)O3)[C@@H](C)C(=O)O[C@H](CC)[C@@](C)(O)[C@H](O)[C@@H](C)C(=O)[C@H](C)C[C@@]2(C)O)O[C@H](C)C[C@@H]1N(C)C [ERYTHROMYCIN ETHYLSUCCINATE]")
20.6
>>> experimental_value("COc1ccc2[nH]c([S+]([O-])Cc3ncc(C)c(OC)c3C)nc2c1 (centres undefined) [OMEPRAZOLE]")
21.5

Switching to the query record.
State the recorded MCH for this entry: COC1=CC(=O)C[C@@H](C)[C@]12Oc1c(Cl)c(OC)cc(OC)c1C2=O [GRISEOFULVIN]
21.9
